// provenance: patent EP0104070A2

System: peanut (var: Chiba hanryusei)
Test: Phytotoxicity to crop plants (Experiment 9), peanut
Assay type: in vivo
Set-up: key: -: No abnormality; +: Abnormality due to phytotoxicity observed in a part of crop plants; ++: Abnormality due to phytotoxicity observed in entire crop plants; +++: Crop plants withered due to phytotoxicity
Conditions: spray, 1000 ppm active ingredient, 10 days
Readout Type: Phytotoxicity Peanut

[[record]]
compound = "O=C(Nc1cccc(Cl)c1)OCC#CCCl"
result = "++"

[[record]]
compound = "CCOc1c(Cl)cc(NC(=S)OC)cc1COC [Compound No. 13]"
result = "-"

[[record]]
compound = "CCOc1c(Cl)cc(NC(=S)OC(C)C)cc1COC [Compound No. 14]"
result = "-"

[[record]]
compound = "COC(=O)Nc1ccc(Cl)c(Cl)c1 [Swep]"
result = "+"

[[record]]
compound = "CCOc1c(C)cc(NC(=S)OCCF)cc1C [Compound No. 9]"
result = "-"

[[record]]
compound = "O=C(Nc1cccc(Cl)c1)OCCCl [CEPC]"
result = "++"


* * *

System: apple (var: Kogyoku)
Assay: Phytotoxicity to crop plants (Experiment 9), apple
Type: in vivo
Set-up: key: -: No abnormality; +: Abnormality due to phytotoxicity observed in a part of crop plants; ++: Abnormality due to phytotoxicity observed in entire crop plants; +++: Crop plants withered due to phytotoxicity
Settings: spray, 1000 ppm active ingredient, 10 days
Readout Type: Phytotoxicity Apple

[[record]]
chemical_structure = "COC(=O)Nc1ccc(Cl)c(Cl)c1"
study_target = "apple (var: Kogyoku)"
result = "++"

[[record]]
chemical_structure = "CCOc1c(C)cc(NC(=S)OCCF)cc1C"
study_target = "apple (var: Kogyoku)"
result = "-"

[[record]]
chemical_structure = "CCOc1c(Cl)cc(NC(=S)OC)cc1COC"
study_target = "apple (var: Kogyoku)"
result = "-"

[[record]]
chemical_structure = "CCOc1c(Cl)cc(NC(=S)OC(C)C)cc1COC"
study_target = "apple (var: Kogyoku)"
result = "-"

[[record]]
chemical_structure = "O=C(Nc1cccc(Cl)c1)OCCCl"
study_target = "apple (var: Kogyoku)"
result = "++"


* * *

System: drug-resistant strain of Botrytis cinerea
Assay: Preventive effect on gray mold of cucumber (Experiment 5), drug-resistant strain
Conditions: cucumber seedlings, spray, 200 ppm active ingredient, mycelial disks, 20°C for 3 days
Readout Type: Prevention value when inoculated with drug-resistant strain (%)

[[record]]
molecule = "c1ccc2[nH]c(-c3cscn3)nc2c1"
unit_text = "%"
quantitative_readout = 0

[[record]]
molecule = "CCOc1c(Cl)cc(NC(=S)OC)cc1COC"
unit_text = "%"
quantitative_readout = 100

[[record]]
molecule = "CCOc1c(Cl)cc(NC(=S)OC(C)C)cc1COC"
unit_text = "%"
quantitative_readout = 100

[[record]]
molecule = "CCCCNC(=O)n1c(NC(=O)OC)nc2ccccc21"
unit_text = "%"
quantitative_readout = 0

[[record]]
molecule = "CCOc1c(C)cc(NC(=S)OCCF)cc1C"
unit_text = "%"
quantitative_readout = 100

[[record]]
molecule = "COC(=O)NC(=S)Nc1ccccc1NC(=S)NC(=O)OC [Thiophanate-methyl]"
unit_text = "%"
quantitative_readout = 0


* * *

Test system: wheat (var: Norin No. 61)
Test: Phytotoxicity to crop plants (Experiment 9), wheat
Assay type: in vivo
Design: key: -: No abnormality; +: Abnormality due to phytotoxicity observed in a part of crop plants; ++: Abnormality due to phytotoxicity observed in entire crop plants; +++: Crop plants withered due to phytotoxicity
Settings: spray, 1000 ppm active ingredient, 10 days
Excerpt: Phytotoxicity to crop plants:-
Readout Type: Phytotoxicity Wheat

[[record]]
chemical_structure = "COC(=O)Nc1ccc(Cl)c(Cl)c1"
result = "++"

[[record]]
chemical_structure = "O=C(Nc1cccc(Cl)c1)OCCCl"
result = "-"

[[record]]
chemical_structure = "CCOc1c(Cl)cc(NC(=S)OC)cc1COC"
result = "-"

[[record]]
chemical_structure = "CCOc1c(Cl)cc(NC(=S)OC(C)C)cc1COC"
result = "-"

[[record]]
chemical_structure = "CCOc1c(C)cc(NC(=S)OCCF)cc1C"
result = "-"


* * *

System: drug-resistant strain of Sphaerotheca fuliginea
Settings: Podosphaera fuliginea, in Cucumis sativus, 240 h, read-out: Prevention value when inoculated with drug-resistant strain (%)
Readout Type: pest or weed control at 200 ppm (%)

[[record]]
compound = "CCOc1c(C)cc(NC(=S)OCCF)cc1C [Compound No. 9]"
quantitative_readout = 100

[[record]]
compound = "COC(=O)NC(=S)Nc1ccccc1NC(=S)NC(=O)OC [Thiophanate-methyl]"
quantitative_readout = 0

[[record]]
compound = "CC(C)OC(=O)Nc1ccccc1 [Propham, isopropyl N-phenylcarbamate]"
quantitative_readout = 0

[[record]]
compound = "CC(C)OC(=O)Nc1cccc(Cl)c1 [Chlorpropham, isopropyl N-(3-chlorophenyl)carbamate]"
quantitative_readout = 0

[[record]]
compound = "C#CC(C)OC(=O)Nc1cccc(Cl)c1 (stereo not shown) [Chlorbufam]"
quantitative_readout = 0

[[record]]
compound = "O=C(Nc1cccc(Cl)c1)OCCCl [CEPC]"
quantitative_readout = 0

[[record]]
compound = "CCCCNC(=O)n1c(NC(=O)OC)nc2ccccc21 [Benomyl]"
quantitative_readout = 0

[[record]]
compound = "O=C(Nc1cccc(Cl)c1)OCC#CCCl"
quantitative_readout = 25

[[record]]
compound = "COC(=O)Nc1nc2ccccc2[nH]1 [Carbendazim, methyl benz-imidazol-2-ylcarbamate]"
quantitative_readout = 0

[[record]]
compound = "CCOc1c(Cl)cc(NC(=S)OC(C)C)cc1COC [Compound No. 14]"
quantitative_readout = 100

